target: GLP-1R (Homo sapiens); construct: host or cells: GLP-1R CRE-bla CHO-K1 cells; test: EC20 GLP-1(9-36) PAM cAMP assay: dose response of compound in the presence of fixed concentration of GLP-1(9-36); format: cell-based; settings: dose response of compound in presence of fixed concentration of GLP-1(9-36), GLP-1R CRE-bla CHO-K1 cells, read-out: EC20 GLP-1(9-36) PAM EC50
Sequence (P43220 24-463): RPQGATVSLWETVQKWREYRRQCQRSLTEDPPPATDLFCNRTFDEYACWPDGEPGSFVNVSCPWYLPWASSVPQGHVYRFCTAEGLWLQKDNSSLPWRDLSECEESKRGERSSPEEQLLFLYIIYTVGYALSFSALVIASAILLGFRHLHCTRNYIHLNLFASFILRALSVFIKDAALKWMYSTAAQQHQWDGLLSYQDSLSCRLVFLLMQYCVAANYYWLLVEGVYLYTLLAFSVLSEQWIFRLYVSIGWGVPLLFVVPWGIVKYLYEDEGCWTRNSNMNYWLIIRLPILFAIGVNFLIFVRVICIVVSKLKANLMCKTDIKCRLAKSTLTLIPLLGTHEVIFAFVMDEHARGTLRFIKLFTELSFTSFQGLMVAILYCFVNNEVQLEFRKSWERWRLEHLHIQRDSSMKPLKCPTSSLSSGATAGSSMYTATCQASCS
Sequence (P01275 100-127 partner limits assumed): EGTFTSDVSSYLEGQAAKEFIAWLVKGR
pEC50: −log10 of the molar value.
EXPERIMENTAL READOUT: pEC50

Study these solved cases before continuing.
COMPOUND | EXPERIMENTAL SYSTEM | OBSERVED MEASUREMENT
CCCCCCCOc1ccc(-c2cnc(-c3ccc(C[C@H](NC(=O)c4ccc(C(C)(C)C)s4)C(=O)NS(C)(=O)=O)cc3)nc2)cc1 [Compound 419] | GLP-1R (Homo sapiens) | > 6.10
CC(C)(C)c1ccc(C(=O)N[C@@H](Cc2ccc(-c3ncc(-c4ccc(OC5CCCC5)cc4)cn3)cc2)C(=O)N2CC(C(=O)O)C2)s1 [Compound 779] | GLP-1R (Homo sapiens) | 5.60 to 6.10

// switching to the query compound
Data request: Returns the measured pEC50 for the input compound. Input: CCCCCCCOc1ccc(-c2cnc(-c3ccc(C[C@H](NC(=O)c4ccc(C(C)(C)C)s4)C(=O)NC(COC)C(=O)O)cc3)nc2)cc1 (stereo partly drawn) [Compound 595]
Data returned: > 6.10

###

target: GLP-1R (Homo sapiens); construct: host or cells: GLP-1R CRE-bla CHO-K1 cells; assay: EC20 GLP-1(9-36) PAM cAMP assay: dose response of compound in the presence of fixed concentration of GLP-1(9-36); type: cell-based; conditions: GLP-1R CRE-bla CHO-K1 cells, compound dose response with fixed concentration of GLP-1(9-36), read-out: EC20 GLP-1(9-36) PAM EC50
pEC50: −log10 of the molar value.
EXPERIMENTAL READOUT: pEC50

COMPOUND | EXPERIMENTAL SYSTEM | pEC50
CCC[C@H]1CC[C@H](c2ccc(-c3cnc(-c4ccc(C[C@H](NC(=O)c5ccc(C(C)(C)C)s5)C(=O)N[C@H](C)C(=O)O)cc4)nc3)cc2)CC1 | GLP-1R (Homo sapiens) | > 6.10
CCCc1ccc(-c2ccc(-c3cnc(-c4ccc(C[C@H](NC(=O)c5ccc(CCC)s5)C(=O)N5CC(C(=O)O)C5)cc4)nc3)c(F)c2)cc1 | GLP-1R (Homo sapiens) | > 6.10
CC(C)(C)c1ccc(C(=O)NC(Cc2ccc(-c3ncc(N4CCC(c5cccc(F)c5)CC4)cn3)cc2)C(=O)N2CC(C(=O)O)C2)s1 (centres unmarked) | GLP-1R (Homo sapiens) | 5.60 to 6.10

Data request: Returns the measured pEC50 for the input compound. Input: CN(C)c1ccc(C2CCN(c3cnc(-c4ccc(CC(NC(=O)c5ccc(C(C)(C)C)s5)C(=O)N5CC(C(=O)O)C5)cc4)nc3)CC2)cc1 (centres unmarked) [Compound 1517]
Data returned: > 6.10

Data request: Would you mind doing CCc1ccc(C(=O)N[C@@H](Cc2ccc(-c3ncc(-c4ccc(OCCCC(C)C)cc4)cn3)cc2)C(=O)N2CC(C(=O)O)C2)cc1 as well?
Data returned: 5.60 to 6.10

Data request: Would you mind doing CCC[C@H]1CC[C@H](C2CCN(c3cnc(-c4ccc(C[C@H](NC(=O)c5ccc(C(C)(C)C)s5)C(=O)N[C@H](C(=O)O)[C@@H](C)O)cc4)nc3)CC2)CC1 as well?
Data returned: > 6.10

Data request: Would you mind doing C[C@@H](NC(=O)[C@H](Cc1ccc(-c2ncc(-c3ccc(-c4ccc(OC(F)(F)F)cc4)cc3)cn2)cc1)NC(=O)c1ccc(C(C)(C)C)s1)C(=O)O as well?
Data returned: > 6.10

Data request: Would you mind doing CCC[C@H]1CC[C@H](C2CCN(c3cnc(-c4ccc(C[C@H](NC(=O)c5ccc(C(C)(C)C)s5)C(=O)N5CCCC[C@H]5C(=O)O)cc4)nc3)CC2)CC1 as well?
Data returned: > 6.10

Data request: Would you mind doing CCC[C@H]1CC[C@H](C2CCN(c3cnc(-c4ccc(C[C@H](NC(=O)c5ccc(C(C)(C)C)s5)C(=O)N[C@H]5C[C@H](C(=O)O)C5)cc4)nc3)CC2)CC1 as well?
Data returned: > 6.10

Data request: Would you mind doing C[C@@H](NC(=O)[C@H](Cc1ccc(-c2ncc(-c3ccc4c(c3)C(C)(C)c3ccccc3-4)cn2)cc1)NC(=O)c1ccc(C(C)(C)C)s1)C(=O)O as well?
Data returned: 5.60 to 6.10

Data request: Would you mind doing CCOc1ccc(-c2ccc(-c3cnc(-c4ccc(C[C@H](NC(=O)c5ccc(C(C)(C)C)s5)C(=O)N[C@H](C)C(=O)O)cc4)nc3)cc2)cc1 as well?
Data returned: 5.60 to 6.10
